Reported values of pIC50 for individual entries
- Target: AA (Homo sapiens)
- Sequence (O14965 1-403): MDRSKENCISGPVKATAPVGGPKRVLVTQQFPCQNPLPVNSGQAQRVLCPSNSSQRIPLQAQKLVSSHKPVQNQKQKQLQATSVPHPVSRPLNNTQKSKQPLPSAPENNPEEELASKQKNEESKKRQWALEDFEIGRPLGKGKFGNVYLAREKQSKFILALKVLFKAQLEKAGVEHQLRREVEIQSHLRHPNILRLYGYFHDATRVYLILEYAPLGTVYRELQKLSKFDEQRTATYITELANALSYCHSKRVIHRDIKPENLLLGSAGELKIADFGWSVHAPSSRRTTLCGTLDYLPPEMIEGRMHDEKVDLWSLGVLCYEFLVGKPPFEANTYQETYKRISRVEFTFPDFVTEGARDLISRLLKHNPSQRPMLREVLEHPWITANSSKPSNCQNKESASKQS
- Experimental details: AA IC50 (Table 1; no method given)
- Format: biochemical
- Conditions used: Table 2, AurA IC50; class symbols; read-out: AurA IC50
pIC50: −log10 of the molar value.
Assay metric: pIC50

{"Molecule": "COc1cc(C(=O)NC2CCN(C)CC2)ccc1Nc1ncc2c(n1)N(C(C)(C)C)CCC(=O)N2C", "Target": "AA (Homo sapiens)", "Endpoint value": "> 6.00"}
{"Molecule": "CN1C(=O)CCN(C2CCCC2)c2nc(Nc3ccc(NC(=O)C4CC4)cc3)ncc21", "Target": "AA (Homo sapiens)", "Endpoint value": "> 7.00"}
{"Molecule": "CN1C(=O)CCN(C2CCCC2)c2nc(Nc3cccc(S(N)(=O)=O)c3)ncc21", "Target": "AA (Homo sapiens)", "Endpoint value": "> 6.00"}
{"Molecule": "CC(=O)NS(=O)(=O)c1ccc(Nc2ncc3c(n2)N(c2c(F)cccc2F)CCC(=O)N3C)cc1", "Target": "AA (Homo sapiens)", "Endpoint value": "> 7.00"}
{"Molecule": "CCN1C(=O)CCN(c2c(F)cccc2F)c2nc(Nc3ccc4c(c3)CS(=O)(=O)C4)ncc21", "Target": "AA (Homo sapiens)", "Endpoint value": "> 6.00"}
{"Molecule": "CNC(=O)c1ccc(Nc2ncc3c(n2)N(C2CCCC2)CCC(=O)N3C)c(OC)c1", "Target": "AA (Homo sapiens)", "Endpoint value": "> 5.00"}
{"Molecule": "CC(C)N1CCC(=O)N(C)c2cnc(Nc3ccc4c(c3)CS(=O)(=O)C4)nc21", "Target": "AA (Homo sapiens)", "Endpoint value": "> 7.00"}
{"Molecule": "COc1cc(C(N)=O)ccc1Nc1ncc2c(n1)N(C1CCCC1)CCC(=O)N2C", "Target": "AA (Homo sapiens)", "Endpoint value": "> 5.00"}
{"Molecule": "CN1CCC(NC(=O)c2cccc(Nc3ncc4c(n3)N(C3CCCC3)CCC(=O)N4C)c2)CC1", "Target": "AA (Homo sapiens)", "Endpoint value": "> 6.00"}
{"Molecule": "CN1C(=O)CCN(C2CCCC2)c2nc(Nc3cccc(S(=O)(=O)N4CCNCC4)c3)ncc21", "Target": "AA (Homo sapiens)", "Endpoint value": "> 5.00"}
{"Molecule": "CN1C(=O)CCN(C2CCCC2)c2nc(Nc3ccc(CCC(=O)O)cc3)ncc21", "Target": "AA (Homo sapiens)", "Endpoint value": "> 7.00"}
{"Molecule": "Cc1cccc(Nc2ncc3c(n2)N(C2CCCC2)CCC(=O)N3C)c1", "Target": "AA (Homo sapiens)", "Endpoint value": "> 7.00"}
{"Molecule": "CN1C(=O)CCN(C2CCCC2)c2nc(Nc3ccc(S(C)(=O)=O)cc3)ncc21", "Target": "AA (Homo sapiens)", "Endpoint value": "> 7.00"}
{"Molecule": "CCC1CN(C2CCCC2)c2nc(Nc3ccc(C(=O)O)cc3)ncc2N(C)C1=O (stereo not drawn)", "Target": "AA (Homo sapiens)", "Endpoint value": "> 7.00"}
{"Molecule": "CC(=O)Nc1ccc(Nc2ncc3c(n2)N(C2CCCC2)CCC(=O)N3C)cc1", "Target": "AA (Homo sapiens)", "Endpoint value": "> 7.00"}
{"Molecule": "CN1C(=O)C2(CCCC2)CN(C2CCCC2)c2nc(Nc3ccc4c(c3)CS(=O)(=O)C4)ncc21", "Target": "AA (Homo sapiens)", "Endpoint value": "> 6.00"}
{"Molecule": "CN1C(=O)CCN(C2CCCC2)c2nc(Nc3ccc4c(c3)CS(=O)(=O)C4)ncc21", "Target": "AA (Homo sapiens)", "Endpoint value": "> 7.00"}
{"Molecule": "COCCNS(=O)(=O)c1ccc(Nc2ncc3c(n2)N(C2CCCC2)CCC(=O)N3C)cc1", "Target": "AA (Homo sapiens)", "Endpoint value": "> 7.00"}
